# TARGET UNDER TEST: E3 ubiquitin-protein ligase XIAP (Homo sapiens) (UniProt P98170)
# Sequence (P98170 whole entry, looked up): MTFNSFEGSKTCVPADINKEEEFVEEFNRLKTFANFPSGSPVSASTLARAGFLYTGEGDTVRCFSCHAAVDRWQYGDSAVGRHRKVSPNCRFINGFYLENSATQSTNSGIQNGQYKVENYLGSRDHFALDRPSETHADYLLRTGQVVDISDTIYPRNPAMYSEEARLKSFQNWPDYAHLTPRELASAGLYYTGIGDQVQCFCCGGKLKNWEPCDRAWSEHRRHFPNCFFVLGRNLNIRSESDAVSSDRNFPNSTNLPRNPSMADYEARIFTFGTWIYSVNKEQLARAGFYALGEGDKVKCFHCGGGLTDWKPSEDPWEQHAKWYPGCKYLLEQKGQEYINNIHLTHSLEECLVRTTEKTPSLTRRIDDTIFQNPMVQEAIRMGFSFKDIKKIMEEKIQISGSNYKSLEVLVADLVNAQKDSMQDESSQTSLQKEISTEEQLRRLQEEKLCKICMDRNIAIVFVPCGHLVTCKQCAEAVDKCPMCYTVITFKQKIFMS
# PROCEDURE TEXT: XIAP binders, primary screen, biophysical, small-molecule microarray, fluorescence 635 nm (AID 1181);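 note: score merges 667 nm emission and signal to noise over triplicate slides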
# CONDITION PARAMETERS: small-molecule microarray binding, higher = more signal
Known composite z-score of a selection of compounds
READOUT KIND: composite z-score

COMPOUND | RESULT NUMBER
O=C1OCCC/C=C\[C@H]2OC34C=CCN(Cc5ccccc5)C(=O)[C@H]3N(CCO)C(=O)[C@@H]4C12 (some centres undefined) | 0.0015
COCCOC(=O)N1C(=O)[C@@]2(c3cc(C#CCNC(N)=O)ccc31)[C@H](C(=O)N1CCN(c3ncccn3)CC1)[C@H]1C(=O)O[C@H](c3ccccc3)[C@H](c3ccccc3)N1[C@@H]2c1ccc(O)cc1 | -0.0129
C=CCN1C(=O)[C@]2(O[C@H](CCO)[C@@H]([Si](C)(C)c3ccc(OC)cc3)[C@@H]2C)c2cc(N3C(=O)c4ccccc4Oc4ccccc43)ccc21 | -0.138
CCCCC(=C=CC[C@H](O)c1ccccc1OCCO)CCO | -0.223
